Assay Explanation: Plasma concentration in human SUP-M2 cells xenografted SCID mouse at 30 mg/kg, po measured after 6 hrs by LC/MS analysis
Type: ADME, organism-based
Parameters: dose 30 mg/kg, route oral
Measured Attribute: concentration at 6 h (ng/mL)
A number alone suffices; assume ng/mL.

Quick one: concentration at 6 h for `COc1cc(N2CCN(C[C@H](C)O)CC2)ccc1Nc1ncc2ccc(-c3ccccc3N(C)S(C)(=O)=O)n2n1` ?
950

###

Assay Explanation: AUC in Sprague-Dawley rat at 1 mg/kg, iv
Format: ADME, organism-based
Design: dose 1 mg/kg, route intravenous
Assay Context: plasma
Measured Attribute: AUC (µg·h/mL)
I only need the number, in µg·h/mL, no unit after it.

Can you look up the measured AUC of `COc1cc(N2CCN(C[C@H](C)O)CC2)ccc1Nc1ncc2ccc(-c3ccccc3N(C)S(C)(=O)=O)n2n1` for me?
0.343

The reported numbers originate from ChEMBL document CHEMBL1821719.
